molecular target: CK1δ(h) (Homo sapiens, UniProt P48730); test: Kinase Profiling Assay; format: biochemical; conditions: 100 μM peptide
Sequence (P48730 whole entry): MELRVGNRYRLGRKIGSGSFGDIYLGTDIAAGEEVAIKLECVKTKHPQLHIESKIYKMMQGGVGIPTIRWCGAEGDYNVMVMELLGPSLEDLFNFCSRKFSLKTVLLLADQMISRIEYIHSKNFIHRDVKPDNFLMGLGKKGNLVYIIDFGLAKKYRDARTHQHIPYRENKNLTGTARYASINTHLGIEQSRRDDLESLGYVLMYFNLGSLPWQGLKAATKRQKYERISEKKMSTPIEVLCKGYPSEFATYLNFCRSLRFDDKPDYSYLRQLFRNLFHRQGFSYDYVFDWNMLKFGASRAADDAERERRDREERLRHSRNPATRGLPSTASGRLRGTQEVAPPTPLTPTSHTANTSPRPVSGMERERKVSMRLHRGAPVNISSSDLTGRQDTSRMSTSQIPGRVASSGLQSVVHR
What CK1δ(h) % activity was measured for each of the following?
Please reply with the bare figure in % and do not write the unit itself.

State the recorded CK1δ(h) % activity for this entry: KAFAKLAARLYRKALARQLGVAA [MMI-0400]
93

What does the data say about its CK1δ(h) % activity? Entry: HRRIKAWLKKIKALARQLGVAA (Mammalian) [MMI-0500]
78

Which value of CK1δ(h) % activity has been reported for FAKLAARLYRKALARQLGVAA [MMI-0300] in the records?
92

Suppose we examine the sequence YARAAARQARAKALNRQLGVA (Mammalian) [MMI-0200] ; what CK1δ(h) % activity value has been reported?
92

* * *

Please respond with reported Rsk4(h) % activity for every item in the list.
biological target: Rsk4(h) (Homo sapiens); assay: Kinase Profiling Assay; assay type: biochemical; conditions: 100 μM peptide
Sequence (Q9UK32 whole entry): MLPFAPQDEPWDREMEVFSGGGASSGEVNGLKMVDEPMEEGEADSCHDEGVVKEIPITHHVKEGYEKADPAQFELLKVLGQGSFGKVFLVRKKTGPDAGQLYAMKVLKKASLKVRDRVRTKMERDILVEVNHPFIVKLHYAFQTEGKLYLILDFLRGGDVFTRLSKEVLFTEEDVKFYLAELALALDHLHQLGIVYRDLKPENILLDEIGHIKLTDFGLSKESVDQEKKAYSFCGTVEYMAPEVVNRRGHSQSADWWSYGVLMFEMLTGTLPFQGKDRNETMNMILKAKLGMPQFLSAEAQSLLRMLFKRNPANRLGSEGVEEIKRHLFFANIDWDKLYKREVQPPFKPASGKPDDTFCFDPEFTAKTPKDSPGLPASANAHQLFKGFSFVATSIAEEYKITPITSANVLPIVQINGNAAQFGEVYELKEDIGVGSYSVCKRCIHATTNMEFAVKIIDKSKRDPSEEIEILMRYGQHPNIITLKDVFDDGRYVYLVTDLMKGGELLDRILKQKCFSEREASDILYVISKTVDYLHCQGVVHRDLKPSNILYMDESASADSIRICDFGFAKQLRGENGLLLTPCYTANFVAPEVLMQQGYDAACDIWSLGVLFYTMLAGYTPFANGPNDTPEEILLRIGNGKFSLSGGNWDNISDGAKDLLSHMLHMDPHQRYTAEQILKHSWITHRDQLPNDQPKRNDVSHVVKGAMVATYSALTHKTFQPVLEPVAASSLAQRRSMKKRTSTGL
Give a bare numeral; the unit % is implied.

I have this sequence here, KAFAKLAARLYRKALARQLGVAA [MMI-0400] , and I need its recorded Rsk4(h) % activity.
91

Recorded Rsk4(h) % activity for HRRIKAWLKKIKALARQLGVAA (Mammalian) [MMI-0500] , please?
29

Form field: reported Rsk4(h) % activity of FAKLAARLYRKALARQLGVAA [MMI-0300]
90

Could you tell me which Rsk4(h) % activity is on file for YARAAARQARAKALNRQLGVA (Mammalian) [MMI-0200] ?
125

* * *

Give measured GCK(h) % activity for each item. Keep answers brief.
Target: GCK(h) (Homo sapiens, UniProt Q12851)
Construct: purchased Millipore
Sequence (Q12851 1-820): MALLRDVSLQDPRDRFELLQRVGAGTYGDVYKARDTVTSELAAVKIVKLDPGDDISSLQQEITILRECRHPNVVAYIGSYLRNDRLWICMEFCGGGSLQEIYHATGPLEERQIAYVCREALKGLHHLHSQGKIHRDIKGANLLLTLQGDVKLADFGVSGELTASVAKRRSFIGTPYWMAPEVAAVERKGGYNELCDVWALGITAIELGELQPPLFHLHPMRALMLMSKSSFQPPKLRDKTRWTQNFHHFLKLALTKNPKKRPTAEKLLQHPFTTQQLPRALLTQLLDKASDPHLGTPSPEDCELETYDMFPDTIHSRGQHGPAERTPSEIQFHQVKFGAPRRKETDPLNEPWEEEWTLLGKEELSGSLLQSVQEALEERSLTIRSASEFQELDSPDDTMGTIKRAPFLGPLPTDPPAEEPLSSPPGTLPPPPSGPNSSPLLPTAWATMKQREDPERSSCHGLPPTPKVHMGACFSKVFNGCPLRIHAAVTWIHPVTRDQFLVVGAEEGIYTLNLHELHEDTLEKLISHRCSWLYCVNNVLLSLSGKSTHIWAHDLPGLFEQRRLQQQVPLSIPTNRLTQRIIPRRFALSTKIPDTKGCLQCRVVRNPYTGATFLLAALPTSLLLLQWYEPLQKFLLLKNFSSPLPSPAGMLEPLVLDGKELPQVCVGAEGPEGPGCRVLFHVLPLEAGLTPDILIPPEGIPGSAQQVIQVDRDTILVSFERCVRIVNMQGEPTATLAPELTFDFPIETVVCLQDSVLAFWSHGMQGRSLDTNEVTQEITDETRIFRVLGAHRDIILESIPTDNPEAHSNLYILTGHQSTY
Assay: Kinase Profiling Assay
Type: biochemical
Conditions: 100 μM peptide
Report the figure in % without appending any unit label.

I'd like to know its GCK(h) % activity. The sequence in question is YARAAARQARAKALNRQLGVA (Mammalian) [MMI-0200]
99

Give its GCK(h) % activity value. Item: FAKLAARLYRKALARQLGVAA [MMI-0300]
70

Dear colleague, I am looking for the recorded GCK(h) % activity of the following sequence: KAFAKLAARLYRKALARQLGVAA [MMI-0400]
66

Could you tell me which GCK(h) % activity is on file for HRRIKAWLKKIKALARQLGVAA (Mammalian) [MMI-0500] ?
30
